The values you see were collected from ChEMBL document CHEMBL1201862.

- Measurement Target: Cytochrome P450 2D6 (Homo sapiens, UniProt P10635);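 also: CYP2D6 member of a cytochrome P450 panel assay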
- Sequence (P10635 whole entry): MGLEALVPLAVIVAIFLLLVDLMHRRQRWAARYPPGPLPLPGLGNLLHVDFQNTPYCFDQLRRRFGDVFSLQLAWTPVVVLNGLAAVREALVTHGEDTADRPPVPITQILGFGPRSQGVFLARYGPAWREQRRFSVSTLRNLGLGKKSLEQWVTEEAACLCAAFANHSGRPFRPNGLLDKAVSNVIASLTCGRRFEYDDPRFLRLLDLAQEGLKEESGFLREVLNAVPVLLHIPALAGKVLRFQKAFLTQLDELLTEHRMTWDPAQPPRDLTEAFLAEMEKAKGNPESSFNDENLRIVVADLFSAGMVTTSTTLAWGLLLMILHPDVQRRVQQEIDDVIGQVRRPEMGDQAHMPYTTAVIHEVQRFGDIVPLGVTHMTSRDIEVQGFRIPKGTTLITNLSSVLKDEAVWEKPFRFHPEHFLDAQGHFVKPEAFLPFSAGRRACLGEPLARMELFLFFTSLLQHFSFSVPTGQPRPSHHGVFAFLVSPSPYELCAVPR
Property Measured: AC50

Query :: Entry under review: CCCCC(=O)OCc1cn(-c2ccc(Cl)cc2)nn1 . Reported AC50?
Result :: 25.1 µM (inconclusive)

Query :: Entry NC(=O)c1ccccc1-c1nc(-n2ccnc2)c2ccccc2n1 please
Result :: 39.8 µM (inconclusive)

Query :: How about CCn1cc(-c2nnnn2-c2ccc(Cl)cc2)c(=O)c2ccccc21 ?
Result :: 11.2 µM (inconclusive)

Query :: # repeat for COc1cc(-c2nc3ccccn3c2/N=C/c2ccccc2)ccc1O
Result :: 28.2 µM (inconclusive)

Query :: Ok, now COc1ccc(-c2nsc3c(N4CCCCC4)ncnc23)cc1
Result :: 15.8 µM (inconclusive)

Query :: // next record COCC(C)NCc1cccc([N+](=O)[O-])c1 (stereo unspecified)
Result :: 14.1 µM (inconclusive)

---

So I've got a bunch of compounds here, and I need their AC50 values.
- Measurement Target: Cytochrome P450 2C9 (Homo sapiens)
- Sequence (P11712 whole entry): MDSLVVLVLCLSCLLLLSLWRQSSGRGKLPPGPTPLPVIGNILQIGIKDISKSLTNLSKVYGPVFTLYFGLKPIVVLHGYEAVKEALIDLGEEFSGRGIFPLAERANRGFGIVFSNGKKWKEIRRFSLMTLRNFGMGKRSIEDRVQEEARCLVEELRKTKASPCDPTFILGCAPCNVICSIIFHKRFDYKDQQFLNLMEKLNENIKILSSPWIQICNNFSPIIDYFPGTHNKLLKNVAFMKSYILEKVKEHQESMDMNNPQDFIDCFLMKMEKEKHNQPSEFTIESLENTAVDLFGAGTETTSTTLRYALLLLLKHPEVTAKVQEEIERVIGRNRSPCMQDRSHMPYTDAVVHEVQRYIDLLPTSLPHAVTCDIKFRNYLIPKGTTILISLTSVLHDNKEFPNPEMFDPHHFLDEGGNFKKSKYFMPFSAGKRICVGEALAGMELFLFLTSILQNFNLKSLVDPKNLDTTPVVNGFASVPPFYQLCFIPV
Active and inactive are the calls of the source.

Query :: Find the recorded AC50 belonging to O=C1NC(=S)NC(=O)C1=Cc1cccc2cc3ccccc3cc12 and report it.
Result :: 3.16 µM (inconclusive)

Query :: Same question for COc1ccc(-c2cc(CCCC(=O)NCCc3ccc(OC)cc3OC)no2)cc1 please.
Result :: 0.562 µM (active)

Query :: Try the compound COCC(C)NCc1cccc([N+](=O)[O-])c1 (centres undefined)
Result :: 0.398 µM (inconclusive)

Query :: Next compound: C=CCn1c(P(=O)(O)c2ccccc2)nc2ccccc21
Result :: 25.1 µM (inconclusive)

Query :: Item: NC(=O)NC(=O)CSc1nnc(-c2ccco2)n1Cc1ccccc1
Result :: 12.6 µM (inconclusive)

Query :: And then Cc1ccc(Cn2cccc(NC(=O)NC3CCCCC3)c2=O)cc1 , what is it?
Result :: 2.51 µM (inconclusive)

Query :: Can you handle COc1cccc(C(=O)/C=C/c2ccc(SC)cc2)c1 next?
Result :: 10 µM (inconclusive)

Query :: Also COc1ccc(C(C(=O)NC2CCCCC2)N(C(=O)c2sc(C)nc2C)c2ccc(OC)cc2)cc1 (centres undefined) , if possible.
Result :: 17.8 µM (inconclusive)

Query :: Next record, please: O=C1NC(=S)N/C1=C/c1cccc([N+](=O)[O-])c1O
Result :: 12.6 µM (inconclusive)

---

- Measurement Target: Protein skinhead-1 (Caenorhabditis elegans)
- Sequence (P34707 whole entry): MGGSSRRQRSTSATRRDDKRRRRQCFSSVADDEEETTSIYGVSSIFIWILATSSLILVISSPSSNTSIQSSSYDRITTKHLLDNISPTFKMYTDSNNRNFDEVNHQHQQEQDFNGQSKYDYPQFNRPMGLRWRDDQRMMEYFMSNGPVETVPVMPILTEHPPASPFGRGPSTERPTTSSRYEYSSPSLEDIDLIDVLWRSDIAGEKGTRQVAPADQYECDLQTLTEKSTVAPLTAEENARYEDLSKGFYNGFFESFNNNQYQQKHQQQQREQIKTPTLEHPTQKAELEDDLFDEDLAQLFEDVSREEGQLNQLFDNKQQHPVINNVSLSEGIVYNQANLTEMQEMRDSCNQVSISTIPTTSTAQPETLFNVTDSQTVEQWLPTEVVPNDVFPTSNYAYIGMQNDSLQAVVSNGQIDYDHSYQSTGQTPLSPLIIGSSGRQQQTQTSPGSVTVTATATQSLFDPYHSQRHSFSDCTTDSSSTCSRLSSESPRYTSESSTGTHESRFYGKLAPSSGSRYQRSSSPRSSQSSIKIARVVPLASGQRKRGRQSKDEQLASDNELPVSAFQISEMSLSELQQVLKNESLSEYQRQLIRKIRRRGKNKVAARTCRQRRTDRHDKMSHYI
- Type: functional
The source made the active and inactive calls.
Hello, when you answer, please use one of the following outcomes: Y = active, N = inactive

Query :: Please share the test call associated with COc1ccc(-c2cc(C(=O)n3cnc4ccccc43)c3ccccc3n2)cc1 .
Result :: N

Query :: Please answer likewise for CCOc1ccc(-c2nc(-c3cccnc3)no2)cc1
Result :: Y

Query :: Subsequent entry: Cc1ccc(N/C=C(/C(=O)c2ccco2)C(=O)C(F)(F)F)cc1Cl
Result :: Y

Query :: And what about the compound CCc1c(C)nc2cc(-c3ccccc3)nn2c1O ?
Result :: N

Query :: Same question, O=C(CCN1CCN(S(=O)(=O)c2ccc(Cl)cc2)CC1)Nc1ccc(F)cc1 this time
Result :: N

Query :: Try this compound too: Fc1ccc(CNc2nc(-c3ccccc3)nc3ccccc23)cc1
Result :: Y

Query :: Query O=C(O)c1ccc2ccc3ccccc3c2c1 next
Result :: N

Query :: And Clc1ccc(-c2nc(-c3ccncc3)no2)c(Cl)c1 ?
Result :: Y

Query :: Please answer likewise for N=c1oc2ccccc2cc1-c1nc(-c2ccccc2)cs1
Result :: N

Query :: Next compound up: CCN(CC)c1ccc(C2NC(=O)c3ccccc3N2)cc1 (stereo unspecified)
Result :: N

Query :: Follow-up item: Clc1ccsc1-c1csc(-c2cccnc2)n1
Result :: N
